The measurements presented in this section are drawn from ChEMBL document CHEMBL3046694.

# TESTED_SYSTEM: Epidermal growth factor receptor (Homo sapiens, UniProt P00533)
# Sequence (P00533 whole entry): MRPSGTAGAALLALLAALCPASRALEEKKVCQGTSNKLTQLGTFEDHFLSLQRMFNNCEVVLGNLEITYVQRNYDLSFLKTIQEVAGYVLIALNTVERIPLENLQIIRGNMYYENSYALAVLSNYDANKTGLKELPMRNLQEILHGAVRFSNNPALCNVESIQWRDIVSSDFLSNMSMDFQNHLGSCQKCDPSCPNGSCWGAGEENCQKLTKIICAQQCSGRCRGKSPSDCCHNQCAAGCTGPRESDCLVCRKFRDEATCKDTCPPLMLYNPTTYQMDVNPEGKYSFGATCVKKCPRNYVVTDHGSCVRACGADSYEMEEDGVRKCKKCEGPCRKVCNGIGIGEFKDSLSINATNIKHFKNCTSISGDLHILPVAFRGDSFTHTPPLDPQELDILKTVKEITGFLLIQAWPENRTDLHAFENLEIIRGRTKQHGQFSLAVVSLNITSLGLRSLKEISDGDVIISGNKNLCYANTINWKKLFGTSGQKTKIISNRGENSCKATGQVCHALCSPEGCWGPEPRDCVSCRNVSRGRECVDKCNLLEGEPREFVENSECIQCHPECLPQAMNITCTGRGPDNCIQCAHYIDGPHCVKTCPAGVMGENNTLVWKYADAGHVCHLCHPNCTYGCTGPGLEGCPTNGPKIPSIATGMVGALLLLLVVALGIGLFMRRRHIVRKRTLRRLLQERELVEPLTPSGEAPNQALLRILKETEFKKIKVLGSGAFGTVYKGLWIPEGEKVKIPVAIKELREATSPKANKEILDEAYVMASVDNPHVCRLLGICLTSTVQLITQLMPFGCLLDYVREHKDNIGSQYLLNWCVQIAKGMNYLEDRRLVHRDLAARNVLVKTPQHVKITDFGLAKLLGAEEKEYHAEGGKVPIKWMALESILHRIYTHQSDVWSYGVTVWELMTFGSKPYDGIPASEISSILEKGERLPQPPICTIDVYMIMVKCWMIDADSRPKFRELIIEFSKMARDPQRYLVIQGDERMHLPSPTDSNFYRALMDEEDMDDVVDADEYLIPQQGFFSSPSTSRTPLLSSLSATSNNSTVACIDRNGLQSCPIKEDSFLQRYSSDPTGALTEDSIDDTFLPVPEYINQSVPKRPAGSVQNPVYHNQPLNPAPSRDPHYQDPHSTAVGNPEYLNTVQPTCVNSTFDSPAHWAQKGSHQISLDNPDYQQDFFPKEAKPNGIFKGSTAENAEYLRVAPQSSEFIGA
# ASSAY_METHOD_TEXT: Inhibition of EGFR (unknown origin)
QUANTITY_KIND: pIC50
Conceptually, pIC50 converts a concentration in mol/L into minus its log10.

Below, 4 compounds whose answers are already recorded.
Exercise: What pIC50 value was documented for this compound, `CN(C)C/C=C/C(=O)Nc1ccc2ncc(C#N)c(Nc3ccc(F)c(Cl)c3)c2c1` ?
Key: 6.19

Exercise: What about `C=CC(=O)Nc1cc2c(Nc3cccc(Br)c3)c(C#N)cnc2cc1OC` ?
Key: 6.09

Exercise: What about `N#Cc1cnc2ccc(NC(=O)C#CCN3CCSCC3)cc2c1Nc1cccc(Br)c1` ?
Key: 6.26

Exercise: What about `COCC#CC(=O)Nc1ccc2ncc(C#N)c(Nc3cccc(Br)c3)c2c1` ?
Key: 6.02

Proceed to the following item.
Exercise: What pIC50 value was documented for this compound, `COCCOCC#CC(=O)Nc1ccc2ncc(C#N)c(Nc3cccc(Br)c3)c2c1` ?
Key: 6.03
